biological target: human orexin-2 receptor (Homo sapiens (Human)); assay: In vitro assay: intracellular calcium measurements (FLIPR), antagonistic activity; settings: CHO cells expressing human orexin-2 receptor, orexin-A agonist, geometric mean, read-out: IC50 Ox2
Sequence (O43614 whole entry): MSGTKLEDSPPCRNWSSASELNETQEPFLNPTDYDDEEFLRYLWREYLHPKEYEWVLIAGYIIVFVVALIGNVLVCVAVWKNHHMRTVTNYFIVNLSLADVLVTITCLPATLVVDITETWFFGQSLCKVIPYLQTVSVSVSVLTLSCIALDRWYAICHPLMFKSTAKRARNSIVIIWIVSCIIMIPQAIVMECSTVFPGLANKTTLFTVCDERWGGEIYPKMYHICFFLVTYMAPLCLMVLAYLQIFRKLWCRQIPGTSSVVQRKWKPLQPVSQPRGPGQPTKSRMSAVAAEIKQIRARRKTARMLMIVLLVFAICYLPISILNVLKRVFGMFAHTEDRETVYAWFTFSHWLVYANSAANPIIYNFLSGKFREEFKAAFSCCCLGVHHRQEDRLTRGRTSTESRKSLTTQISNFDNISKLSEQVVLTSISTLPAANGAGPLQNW
Decision: IC50 beneath 30 nM gives YES; IC50 meeting or exceeding 30 nM gives NO.

> print(dat)
                                    molecule  assigned.category
 1  C=C1CC(c2nc3cc(C(C)(C)C)ccc3[nH]2)N(C(=O)c2nc(C3CC3)sc2-c2cccc(C)c2)C1 (stereo not drawn)                 NO
 2  C=C1C[C@@H](c2nc3ccc(Cl)c(C)c3[nH]2)N(C(=O)c2nc(C)sc2-c2ccc(Cl)c(Cl)c2)C1                YES
 3  CO[C@H]1CN(C(=O)c2ccccc2-n2nccn2)C(C)(c2nc3c(C)c(Cl)ccc3[nH]2)C1 (stereo partly drawn)                YES
 4  Cc1nc(C(=O)N2CCC[C@@]2(C)c2nc3c(F)c(F)ccc3[nH]2)c(-c2ccc(Cl)cc2)s1                 NO
 5  COc1ccc(-n2nccn2)c(C(=O)N2CCC[C@H]2c2nc3cccc(SC)c3[nH]2)c1                YES
 6  CO[C@H]1CN(C(=O)c2ccc(C)cc2-n2nccn2)C(C)(c2nc3c(C)c(Cl)ccc3[nH]2)C1 (stereo partly drawn)                YES
 7  Cc1ccc2[nH]c([C@@H]3[C@@H](C)CCN3C(=O)c3nc(C)sc3-c3ccccc3)nc2c1                 NO
 8  C=C1C[C@@H](c2nc3c(C)c(Cl)ccc3[nH]2)N(C(=O)c2nc(C)sc2-c2ccc(C)c(C)c2)C1                YES
 9  CSc1ccc2nc([C@@H]3CCCN3C(=O)c3cc(C#N)ccc3-n3nccn3)[nH]c2c1                YES
10  Cc1nc(C(=O)N2CCC[C@H]2c2nc3c(C)cc(Br)cc3[nH]2)c(-c2ccccc2)s1                YES
11  COc1ccc(-n2nccn2)c(C(=O)N2C[C@H](OC)C[C@H]2c2nc3ccc(Cl)c(C)c3[nH]2)c1F                YES
12  C=C1C[C@@H](c2nc3ccc(OC)cc3[nH]2)N(C(=O)c2nc(C)ccc2-n2cccn2)C1                 NO
13  Cc1ccc(C(=O)N2CCC[C@@]2(C)c2nc3cc(OC(F)(F)F)ccc3[nH]2)c(-c2ccccn2)c1                 NO
14  Cc1nc(C(=O)N2CCCC2c2nc3c(Br)cc(F)cc3[nH]2)c(-c2ccccc2)s1 (stereo not drawn)                 NO
15  COc1ccc2[nH]c([C@@H]3CCCN3C(=O)c3cc(C)ccc3-n3nccn3)nc2c1                YES
16  Cc1ccc(-c2cccc(F)c2)c(C(=O)N2CCC[C@@]2(C)c2nc3cc(C)c(C)cc3n2C)c1                YES
17  C[C@@]1(c2nc3cc(C(F)(F)F)ccc3[nH]2)CCCN1C(=O)c1cc(OC(F)(F)F)ccc1-n1nccn1                 NO
18  C=C1C[C@@H](c2nc3cc(C)c(C)cc3[nH]2)N(C(=O)c2c(F)cccc2-n2nccn2)C1                YES
19  Cc1nc(C(=O)N2CC[C@H](C)[C@H]2c2nc3c(Cl)cccc3[nH]2)c(-c2cc(F)cc(F)c2)s1                 NO
20  COc1cc2nc([C@]3(C)CCCN3C(=O)c3cc(C)ccc3-n3nccn3)n(C)c2cc1OC                YES
21  CCn1c([C@]2(C)CCCN2C(=O)c2cc(C)ccc2-c2ccc(F)cc2)nc2cc(C)c(C)cc21                YES
22  Cc1ccc(-c2ccccc2C)c(C(=O)N2CCC[C@@]2(C)c2nc3cc(C)c(C)cc3[nH]2)c1                 NO
23  Cc1ccc(-n2cccn2)c(C(=O)N2CC[C@H](C)[C@H]2c2nc3c(C)c(Cl)ccc3[nH]2)c1                 NO
24  Cc1cccc(-c2ccc(C)cc2C(=O)N2CCC[C@@]2(C)c2nc3cc(C)c(C)cc3n2CC2CC2)c1                 NO
25  COc1ccc(-n2nccn2)c(C(=O)N2CCC[C@@]2(C)c2nc3cc(F)c(Br)cc3[nH]2)c1F                 NO
26  C=C1C[C@@H](c2nc3ccc(Cl)c(C)c3[nH]2)N(C(=O)c2cc(C)ccc2-n2cccn2)C1                YES
27  CSc1ccc2[nH]c([C@@H]3CCCN3C(=O)c3cc(C)ccc3-n3nccn3)nc2c1                YES
28  C=C1C[C@@H](c2nc3cc(OC)ccc3[nH]2)N(C(=O)c2nc(C3CC3)sc2-c2ccccc2)C1                 NO
29  Cc1ccc(C(=O)N2CC[C@H](C)[C@H]2c2nc3cc(C)c(C)cc3[nH]2)c(-n2nccn2)c1                 NO
30  Cc1nc(C(=O)N2CC[C@H](C)[C@H]2c2nc3cc(C)c(C)cc3[nH]2)c(-c2cccc(Cl)c2)s1                 NO
